These data points were gathered from ChEMBL document CHEMBL3431459.

Biological target: Carnitine O-palmitoyltransferase 2, mitochondrial (Homo sapiens, UniProt P23786)
Sequence (P23786 whole entry): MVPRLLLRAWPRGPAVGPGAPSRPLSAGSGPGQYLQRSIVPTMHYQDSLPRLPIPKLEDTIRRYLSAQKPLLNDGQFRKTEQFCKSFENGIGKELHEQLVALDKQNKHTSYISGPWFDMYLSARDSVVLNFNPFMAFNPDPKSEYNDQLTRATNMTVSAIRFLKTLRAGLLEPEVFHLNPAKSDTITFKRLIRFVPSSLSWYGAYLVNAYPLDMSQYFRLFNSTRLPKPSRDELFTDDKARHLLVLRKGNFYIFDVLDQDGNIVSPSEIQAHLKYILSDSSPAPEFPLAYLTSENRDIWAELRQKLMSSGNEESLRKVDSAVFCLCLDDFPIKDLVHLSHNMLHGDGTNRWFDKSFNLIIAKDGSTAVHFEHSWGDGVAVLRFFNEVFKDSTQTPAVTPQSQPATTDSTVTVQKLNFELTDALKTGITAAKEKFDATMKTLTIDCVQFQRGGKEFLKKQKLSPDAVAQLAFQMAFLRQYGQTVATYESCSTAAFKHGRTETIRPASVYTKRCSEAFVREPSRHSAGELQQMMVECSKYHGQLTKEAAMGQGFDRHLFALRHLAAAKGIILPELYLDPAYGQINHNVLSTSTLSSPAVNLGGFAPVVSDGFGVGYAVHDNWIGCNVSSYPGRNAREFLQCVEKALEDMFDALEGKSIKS
pIC50: −log10 of the molar value.
Provide the reported pIC50 of each item.

1) O=C(O)c1cccc(-c2csc([C@H]3CCCCN3C(=O)COc3ccccc3)n2)c1 4.50
2) CC(=O)Nc1ccc(F)c(-c2n[nH]c([C@H]3CCCCN3C(=O)COc3ccccc3)n2)c1 < 4.00

Would you kindly look at the next entry?
Give the measured pIC50 for O=C(COc1ccccc1)N1CCCC[C@@H]1C#Cc1ccc2[nH]cnc2c1 < 4.00

###

Provide the reported IC50 of each item.
Biological target: Carnitine O-palmitoyltransferase 2, mitochondrial (Homo sapiens, UniProt P23786)

1) CS(=O)(=O)c1cccc(-c2nc([C@H]3CCCCN3C(=O)COc3ccccc3)no2)c1 22.3 µM

// input: 4 compounds below; output: IC50 for each
1. O=C(COc1ccccc1)N1CCCC[C@@H]1c1noc(C2(C(F)(F)F)CC2)n1
2. O=C(COc1ccccc1)N1CCCC[C@@H]1c1nc(-c2cccc(F)c2)n[nH]1
3. COc1ccc(Cl)cc1S(=O)(=O)N1C[C@@H](C(=O)O)Oc2ccc(C(=O)Nc3ccccc3)cc21
4. CC(=O)Nc1cccc(C#C[C@H]2CCCCN2C(=O)COc2ccccc2)c1

1: > 100 µM; 2: > 100 µM; 3: > 100 µM; 4: > 100 µM

###

Provide the reported pIC50 of each item.
Target: Carnitine O-palmitoyltransferase 1, liver isoform (Homo sapiens)
Sequence (P50416 whole entry, canonical isoform): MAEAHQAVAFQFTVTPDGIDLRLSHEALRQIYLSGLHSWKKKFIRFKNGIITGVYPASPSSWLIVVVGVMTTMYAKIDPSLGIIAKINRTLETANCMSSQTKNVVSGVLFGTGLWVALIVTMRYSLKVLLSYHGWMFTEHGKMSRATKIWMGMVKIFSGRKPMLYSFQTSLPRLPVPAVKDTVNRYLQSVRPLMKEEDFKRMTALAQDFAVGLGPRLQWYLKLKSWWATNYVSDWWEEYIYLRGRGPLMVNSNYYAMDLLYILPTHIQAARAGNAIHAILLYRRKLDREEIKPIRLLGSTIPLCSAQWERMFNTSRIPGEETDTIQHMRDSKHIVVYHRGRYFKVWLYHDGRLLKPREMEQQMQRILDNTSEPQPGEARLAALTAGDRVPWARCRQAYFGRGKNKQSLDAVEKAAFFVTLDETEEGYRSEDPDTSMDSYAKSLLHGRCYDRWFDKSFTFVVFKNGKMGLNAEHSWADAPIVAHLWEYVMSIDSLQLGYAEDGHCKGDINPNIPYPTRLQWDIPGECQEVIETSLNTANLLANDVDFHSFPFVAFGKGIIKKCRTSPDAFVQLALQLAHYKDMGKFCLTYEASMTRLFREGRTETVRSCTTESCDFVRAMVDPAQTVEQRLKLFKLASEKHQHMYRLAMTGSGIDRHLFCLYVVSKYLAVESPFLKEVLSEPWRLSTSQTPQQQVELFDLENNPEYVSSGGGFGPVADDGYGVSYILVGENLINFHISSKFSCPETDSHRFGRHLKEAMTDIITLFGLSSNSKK
Experiment: SUPPLEMENTARY: Inhibition of Carnitine palmitoyltransferase 1, liver isoform
Numbers only, as −log10 of the molar value.

Some solved entries appear below for comparison.
compound	tested_target	recorded_measurement
COc1ccc(C)cc1S(=O)(=O)N1CCOc2ccc(C(=O)Nc3ccc(C(=O)O)c(F)c3)cc21	Carnitine O-palmitoyltransferase 1, liver isoform (Homo sapiens)	6.65
COc1ccc(Cl)cc1S(=O)(=O)Nc1cc(C(=O)Nc2ccccc2)ccc1CCC(=O)O	Carnitine O-palmitoyltransferase 1, liver isoform (Homo sapiens)	7.27
COc1ccc(Cl)cc1S(=O)(=O)c1cn(CS(C)(=O)=O)c2ccc(C(=O)Nc3ccccc3)cc12	Carnitine O-palmitoyltransferase 1, liver isoform (Homo sapiens)	6.95
CC(=O)c1ccc(-c2nc([C@H]3CCCCN3C(=O)COc3ccccc3)no2)cc1	Carnitine O-palmitoyltransferase 1, liver isoform (Homo sapiens)	7.29

// input: 6 compounds below; output: pIC50 for each
1. COc1ccc(Cl)cc1CN(C(=O)C(C)C)c1cc(C(=O)Nc2nc(CC(=O)O)cs2)ccc1Cl
2. COc1ccc(Cl)cc1CN1C(=O)OC(C)(C)c2ccc(C(=O)Nc3ccc(C(=O)O)cc3)cc21
3. COc1ccc(Cl)cc1S(=O)(=O)Nc1cc(C(=O)Nc2ccc(C(=O)O)cc2)cn(C)c1=O
4. CCN1C(=O)CC(C)(C)c2ccc(-c3nc([C@H]4CCCCN4C(=O)COc4ccccc4)no3)cc21
5. CC(=O)Nc1ccc(-c2noc([C@H]3CCCCN3C(=O)C#Cc3ccccc3)n2)cc1C(F)(F)F
6. COC(=O)c1cccc(-c2nc([C@H]3CCCCN3C(=O)COc3ccccc3)sc2C)c1

1: 6.63; 2: 7.05; 3: 6.90; 4: 6.77; 5: 6.58; 6: 6.52

// input: 6 compounds below; output: pIC50 for each
1. COc1ccc(Cl)cc1S(=O)(=O)N1CCSc2ccc(C(=O)Nc3ccc(C(=O)O)c(Cl)c3)cc21
2. COc1ccc(Cl)cc1S(=O)(=O)N1CCNc2ccc(C(=O)Nc3ccc(C(=O)O)cc3)cc21
3. COc1ccc(Cl)cc1S(=O)(=O)N1CCc2ccc(C(=O)Nc3ccc(C(=O)O)c(Cl)c3)cc21
4. O=C(COc1ccccc1)N1CCCC[C@@H]1c1noc(-c2ccc3[nH]cnc3c2)n1
5. O=C(COc1ccccc1)NS(=O)(=O)Cc1ccc(-c2nc([C@H]3CCCCN3C(=O)COc3ccccc3)cs2)cc1
6. CN(Cc1ccccc1)C(=O)[C@H]1CCCCN1C(=O)COc1ccccc1

[7.06, 7.15, 6.88, 7.53, 6.67, 5.71]
